Molecular target: Tyrosine-protein kinase Lck (Homo sapiens)
Assay: Inhibition of Lck at 10 uM by HTRF assay relative to control
Exercise: for every item that follows, state its recorded inhibition.
Provide the reading as a plain figure in %.

Task item: Fill in the blank: the reported inhibition of "Nc1nc(N2CCOCC2)cc(N2CCC(C(=O)NCCc3ccc(O)cc3)CC2)n1" is ____.
Reply: 0

Task item: Fill in the blank: the reported inhibition of "Nc1nc(Nc2ccc3ncsc3c2)cc(N2CCC[C@H]2C(=O)NCCc2cccc(I)c2)n1" is ____.
Reply: 0

Task item: Fill in the blank: the reported inhibition of "Cc1cccc(N(C)c2cc(Nc3cccc(C(=O)N(CC(C)C)CC(C)C)c3)ncn2)c1" is ____.
Reply: 0

Task item: Fill in the blank: the reported inhibition of "O=C(CN1CCN(c2ncnc3c2CN(Cc2ccccc2)CC3)CC1)Nc1cc(F)ccc1F" is ____.
Reply: 0

Task item: Fill in the blank: the reported inhibition of "Cc1cc(C(=O)N2CCN(c3ncnc4c3CN(Cc3ccccc3)CC4)CC2)c(C)n1C" is ____.
Reply: 0

Task item: Fill in the blank: the reported inhibition of "Clc1ccc2sc(CN3CCN(c4ncnc5c4CN(Cc4ccccc4)CC5)CC3)cc2c1" is ____.
Reply: 0

Task item: Fill in the blank: the reported inhibition of "CC(=O)CCCCC(=O)N1CCN(c2nccc(Oc3cccc(C)c3)n2)CC1" is ____.
Reply: 0

Task item: Fill in the blank: the reported inhibition of "Cc1cccc(N(C)c2cc(N3CCN(C(=O)Cc4c[nH]c5ccccc45)CC3)ncn2)c1" is ____.
Reply: 0
